# variant/HC_D62R values compiled below
- TARGET_OR_TEST_SYSTEM: T1, human tissue factor pathway inhibitor (TFPI) (human, UniProt P10646 29-304, limits assumed)
- T1 construct: bought; also called hTFPI; human TFPI
- T1 sequence (looked up): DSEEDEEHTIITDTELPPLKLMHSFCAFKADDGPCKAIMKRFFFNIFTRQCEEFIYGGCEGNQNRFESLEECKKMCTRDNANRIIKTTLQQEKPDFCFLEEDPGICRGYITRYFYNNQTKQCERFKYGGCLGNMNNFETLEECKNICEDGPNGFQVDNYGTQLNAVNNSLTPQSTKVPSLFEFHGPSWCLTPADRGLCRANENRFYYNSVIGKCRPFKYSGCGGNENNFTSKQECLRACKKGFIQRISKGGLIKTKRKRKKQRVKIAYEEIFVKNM
- ASSAY: competitive ELISA
Provide only the numeric value, understood in ratio.

Please review the following examples before continuing.
binder="4B7 HC D62Q+Y112D/LC S32R+D33F+N35I (Fab, V domains shown) VH: QVQLQQSGPGLVKPSQTLSLTCAISGDSVSSNSAAWSWIRQSPGRGLEWLGIIYKRSKWYNQYAVSVKSRITINPDTSKNQFSLQLNSVTPEDTAVYYCARWHSDKHWGFDDWGQGTLVTVSS VL: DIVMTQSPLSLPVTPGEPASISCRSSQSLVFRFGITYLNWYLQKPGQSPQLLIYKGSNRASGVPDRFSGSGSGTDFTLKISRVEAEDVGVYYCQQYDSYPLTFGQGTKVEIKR" recorded_number=23.6
binder="4B7 HC N32D+D62R+Y112D/LC F31I+D33F+N35I+D97T (Fab, V domains shown) VH: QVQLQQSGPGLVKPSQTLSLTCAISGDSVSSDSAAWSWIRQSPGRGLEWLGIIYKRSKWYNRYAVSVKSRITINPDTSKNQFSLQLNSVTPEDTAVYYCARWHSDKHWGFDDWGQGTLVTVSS VL: DIVMTQSPLSLPVTPGEPASISCRSSQSLVISFGITYLNWYLQKPGQSPQLLIYKGSNRASGVPDRFSGSGSGTDFTLKISRVEAEDVGVYYCQQYTSYPLTFGQGTKVEIKR" recorded_number=23.3

Shift focus to the following entry.
Recorded variant/HC_D62R for B41.2 (4B7 HC N32D+D62R+Y112D/LC S32R+D33F+N35I) (Fab, V domains shown) VH: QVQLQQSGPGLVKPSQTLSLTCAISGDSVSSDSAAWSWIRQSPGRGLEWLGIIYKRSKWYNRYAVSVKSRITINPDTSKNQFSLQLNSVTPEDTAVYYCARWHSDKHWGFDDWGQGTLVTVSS VL: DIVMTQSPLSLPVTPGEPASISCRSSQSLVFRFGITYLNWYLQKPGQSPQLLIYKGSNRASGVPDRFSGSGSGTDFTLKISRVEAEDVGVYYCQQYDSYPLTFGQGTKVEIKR , please?
29.7
